Hello, the source for this data is a melting point compilation (Tetko et al.; mined from patent text by program, amines drawn as free bases though some values may be those of a salt), in case you need it.

Listed compounds paired with reported melting point
property measured: melting point

- compound: "NCC1Cc2cccc(-c3ccc4ccccc4c3)c2O1 (stereo not given)"
  property measured: "melting point"
  observed result: "135 to 140 °C"
- compound: "CN1CCn2c1nc(N1CCc3ccccc3CC1)c(C#N)c2=O"
  property measured: "melting point"
  observed result: "174 to 177 °C"
- compound: "CC(NC1=C(N=Nc2ccccc2)C(=O)SC1)c1ccccc1 (stereo not given)"
  property measured: "melting point"
  observed result: "129 to 130 °C"
- compound: "Cc1ccc2c(c1)C(=O)N(C)Cc1c(C(N)=O)ncn1-2"
  property measured: "melting point"
  observed result: "290 to 294 °C"
- compound: "COc1ccccc1-c1cccc2c1OC(CN)CN2C (stereo not given)"
  property measured: "melting point"
  observed result: "90 °C"
- compound: "O=C(C(=O)c1cccc(OCCCN2CCCC2)c1)c1cccc(OCCCN2CCCC2)c1"
  property measured: "melting point"
  observed result: "136 to 139 °C"
- compound: "COc1ccc(CN2C(=O)CC[C@@]3(C)c4ccc(Cl)cc4CC[C@H]23)cc1 (relative stereo)"
  property measured: "melting point"
  observed result: "55 to 60 °C"
- compound: "Cc1ccc(S(=O)(=O)NCCCCOc2ccc(-n3cccc3)cc2)cc1"
  property measured: "melting point"
  observed result: "124 to 126 °C"
- compound: "CN(C(=O)C1CC1)c1cccc(-c2ccnc3c(C(=O)c4ccco4)cnn23)c1"
  property measured: "melting point"
  observed result: "207 to 209 °C"
- compound: "CN(C)CCCN1N=C2C(=Cc3ccccc3)CS(=O)CC2C1c1ccccc1 (stereo not given)"
  property measured: "melting point"
  observed result: "155 to 160 °C"
- compound: "CCCn1c(COCC)nc2c(N)nc3cc(OCc4ccccc4)ccc3c21"
  property measured: "melting point"
  observed result: "188 to 189 °C"
- compound: "COC(=O)c1ccc(COc2cc(F)ccc2N)c(F)c1"
  property measured: "melting point"
  observed result: "92 to 95 °C"
- compound: "CC(CCC(O)C(C)(C)O)C1CCC2C3CCC4CC(O)CCC4(C)C3CCC12C (stereo not given)"
  property measured: "melting point"
  observed result: "152 to 154 °C"
- compound: "O=C1Nc2ccc(Cl)cc2C1c1ncnc2nn(C3CCCCC3)cc12 (stereo not given)"
  property measured: "melting point"
  observed result: "294 to 298 °C"
- compound: "CCCOc1ncc(I)cc1-c1nc2c(CC)nn(CCN3CCOCC3)c2c(=O)[nH]1"
  property measured: "melting point"
  observed result: "175 to 177 °C"
- compound: "CCOC(=O)c1ccc(-c2c(Cl)c(CN3C(=O)CCC3=O)nc3sc4c(c23)CCN(C(=O)OCc2ccccc2)C4)cc1"
  property measured: "melting point"
  observed result: "198 to 199 °C"
- compound: "CCCCNC(=O)[C@@H](C[C@H](O)[C@@H](N)CC1CCCC1)C(C)C"
  property measured: "melting point"
  observed result: "93 to 94 °C"
- compound: "CC(C)Oc1ccc2ncn(/C=C/C(=O)O)c(=O)c2c1"
  property measured: "melting point"
  observed result: "232 to 234 °C"
- compound: "COc1cc(N)c(Cl)cc1C(=O)NCC1CCN(CCCCN)CC1"
  property measured: "melting point"
  observed result: "104 to 107 °C"
- compound: "CC1(C)CC(=NO)CC(=NO)C1C#N (stereo not given)"
  property measured: "melting point"
  observed result: "139 to 140 °C"

###

property measured: melting point

- compound: "COc1ccc(N2CCOCC2)c2sc(C(=O)NC3CCN(C(=O)OC(C)(C)C)CCC3O)nc12 (stereo not drawn)"
  observed result: "71 to 73 °C"
- compound: "CC(CN1CC=C(c2cccs2)CC1)N(C(=O)C1CC=CCC1)c1ccccn1 (stereo not drawn)"
  observed result: "92 to 96 °C"
- compound: "CCCc1nn(C)c2c(=O)n(CCCc3cccc(OC(C)(CC)C(=O)O)c3)c(C)nc12 (stereo not drawn)"
  observed result: "136 to 138 °C"
- compound: "CC(C)=C(C#N)C(=O)NCc1ccc(Cl)c(Cl)c1"
  observed result: "131 to 132 °C"
- compound: "CCOC(=O)c1nc(CC)[nH]c1C(=O)OCC"
  observed result: "83 to 84 °C"
- compound: "OC12N=C(c3ccccc3)SC1(Br)Cc1cc(Cl)ccc12 (stereo not drawn)"
  observed result: "148 °C"
- compound: "O=[N+]([O-])c1ccc2ncnc(Nc3cccc(Br)c3)c2c1"
  observed result: "267 to 270 °C"
- compound: "COc1cc(OC)c2c(c1)C(C)(C)C1(C=Cc3cc([N+](=O)[O-])cc(OC)c3S1)N2C (stereo not drawn)"
  observed result: "131 °C"
- compound: "CC(=O)Nc1ccc(S(=O)(=O)N[C@@H]2COCOC[C@H]2O)cc1 (relative stereo)"
  observed result: "161 to 163 °C"
- compound: "CC(C)c1ccc(-c2nn(C)c(=O)c3ccccc23)cc1"
  observed result: "107 to 108 °C"
- compound: "O=C(CC(C(=O)c1ccccc1)C(O)=S)c1ccccc1 (stereo not drawn)"
  observed result: "142 to 144 °C"
- compound: "CC1(Cc2ccccc2)CCNC1=O (stereo not drawn)"
  observed result: "89 to 90 °C"
- compound: "CC(C)(C)COc1cccc(C[C@H]2NC(=O)O[C@H]2c2cccc(Cl)c2)c1 (racemic)"
  observed result: "141 to 142 °C"
- compound: "Cn1nc(N)c2c(=O)n3c(nc21)SCC3"
  observed result: "280 to 283 °C"
- compound: "Cn1cc(C(F)(F)F)ccc1=O"
  observed result: "125 to 129 °C"
- compound: "NCC1CCN(c2ncc3ncnc(Nc4ccc(F)c(Cl)c4)c3n2)CC1"
  observed result: "165 °C"
- compound: "CC(=O)c1cccc2c1NCC2"
  observed result: "83 to 85 °C"
- compound: "Cc1c(C(=O)Nc2ccc(OCCN3CCOCC3)c(C#N)c2)cnn1-c1ccc(C(F)(F)F)cc1"
  observed result: "191 to 193 °C"
- compound: "Nc1ccc(-c2ccc(-c3ccc(N)cc3)o2)cc1"
  observed result: "213 to 216 °C"
- compound: "Cc1[nH]c(-c2ccccc2)nc1C(C)O (stereo not drawn)"
  observed result: "189 to 190 °C"
- compound: "CCOC(=O)c1ccc(NCc2ccc3ccc4nc(C)[nH]c(=O)c4c3c2)cc1F"
  observed result: "> 200 °C"
- compound: "CON=C(C)c1c(C)sc(C)c1CS(=O)(=O)C1=NOC(C)(C)C1"
  observed result: "95 to 96 °C"
- compound: "Cc1c(F)cccc1NC(=O)c1ccc(CN2C(=O)C3(COc4cc5c(cc43)CCO5)c3ccccc32)cc1 (stereo not drawn)"
  observed result: "143 to 144 °C"
- compound: "CCOC(=O)C(=CN(C)C)C(=O)c1cc(F)c(Cl)cc1Cl"
  observed result: "94 to 95 °C"
- compound: "Cc1coc(C)c1N(C)c1cc(C(=O)N(C)C)cc2c1nc(C)n2C"
  observed result: "163 to 164 °C"
- compound: "CC1CCCC(C)(C)C1C(O)c1ccc(C(N)=NO)c(F)c1 (stereo not drawn)"
  observed result: "154 to 156 °C"
- compound: "CCCCc1ncc(C=O)n1Cc1ccc(C(=O)OC)c(Cl)c1Cl"
  observed result: "94 to 96 °C"
- compound: "Cc1cc(O)c(C)c2c1NCC2"
  observed result: "155 to 158 °C"
- compound: "COc1nc(N)cc2cccnc12"
  observed result: "178 to 180 °C"
- compound: "C[C@@H]1CSC(=O)[C@@H]2CCCN2C1=O"
  observed result: "98 to 101 °C"
- compound: "C=CCOc1cc(-c2ncnc(C(F)F)c2Cl)c(F)cc1Cl"
  observed result: "69 to 71 °C"
- compound: "O=C1CCCCCCCCCCC(=O)O1"
  observed result: "85 to 89 °C"
- compound: "CC(=O)NCc1c(C)cc(CN2CCN(c3ccc(F)cc3)CC2)cc1C"
  observed result: "163 to 164 °C"
- compound: "CCOC(=O)C1(O)C=CN=c2ccc3c(c21)NCN=3 (stereo not drawn)"
  observed result: "315 to 316 °C"
- compound: "COc1c2c(nc3ccccc13)CCN(Cc1ccccc1)CC2"
  observed result: "< 20 °C"
- compound: "COC(=O)C(C)(OCc1ccc2cc(OC)ccc2c1)C(F)(F)F (stereo not drawn)"
  observed result: "60 to 62 °C"
- compound: "CCOC(=O)c1cn(-c2cc(NC(=O)OCc3ccccc3)c(F)cc2F)c2cc(F)c(F)c(C)c2c1=O"
  observed result: "202 to 204 °C"
- compound: "CCOC(=O)c1cc([N+](=O)[O-])ccc1O"
  observed result: "97 °C"
- compound: "CCn1c(=O)c2c(nc(/C=C/c3cc(C)c(OC)cc3C)n2C)n(CC)c1=O"
  observed result: "235 to 236 °C"
- compound: "NC(=O)NCCSc1ccc2nccn2n1"
  observed result: "216 to 217 °C"
- compound: "O=C(O)Cc1cccc(Cc2nc3c(F)c(F)cc(F)c3s2)c1"
  observed result: "132 to 134 °C"
- compound: "Nc1ccc(C2CCNC2)c(F)c1 (stereo not drawn)"
  observed result: "108 to 109 °C"
- compound: "C[C@@H](CO)NC(=S)[C@@H](CC(=O)OC(C)(C)C)NC(=O)OC(C)(C)C"
  observed result: "70 to 72 °C"
